target-or-system: GST-RIPK1 (recombinant GST-RIPK1 kinase domain (residues 1-327)) (Homo sapiens, UniProt Q13546)
Construct: recombinant GST-RIPK1 kinase domain (residues 1-327) enzyme produced from baculovirus-transfected Sf21 cells
Sequence (Q13546 1-327): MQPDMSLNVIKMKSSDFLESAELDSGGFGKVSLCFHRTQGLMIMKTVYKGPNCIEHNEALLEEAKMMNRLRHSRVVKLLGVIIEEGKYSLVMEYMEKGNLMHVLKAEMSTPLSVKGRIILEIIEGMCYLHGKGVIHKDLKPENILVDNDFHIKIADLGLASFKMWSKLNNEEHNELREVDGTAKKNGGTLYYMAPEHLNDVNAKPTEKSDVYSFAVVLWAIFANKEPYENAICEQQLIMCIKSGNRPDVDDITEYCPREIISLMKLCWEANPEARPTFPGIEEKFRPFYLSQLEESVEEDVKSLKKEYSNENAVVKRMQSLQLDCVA
assay-comment: RIPK1-ADP-Glo Enzymatic Assay
study-conditions: ten-point titration, top compound concentration of 100000 nM; 25 nM GST-RIPK1, 300 μM ATP, 3 μM dephosphorylated-MBP; 30 min pre-incubation, 150 min reaction
# reported EC50; entries follow
outcome-measure: EC50 (nM)

compound="O=C1N2[C@@H](CC[C@H]2c2cnccn2)OC12CC(Oc1cnccn1)C2 (stereo partly drawn) [Example 9.66]" outcome_measure=EC50 assay_result=21
compound="O=C1N2[C@@H](CC[C@H]2c2cc(F)cc(F)c2)O[C@]12C[C@H](Oc1cc(-c3cnn(C(F)F)c3)ncn1)C2 [Example 9.54]" outcome_measure=EC50 assay_result=24
compound="Cc1nc(O[C@H]2C[C@@]3(C2)O[C@@H]2CC[C@@H](c4cc(F)cc(F)c4)N2C3=O)c2cccn2n1 [Example 9.29]" outcome_measure=EC50 assay_result=47
compound="O=C1N2[C@@H](CC[C@H]2c2cnccn2)OC12CC(OCC1CCC1)C2 (single isomer, unassigned) [Example 23.2]" outcome_measure=EC50 assay_result=577
compound="O=C1N2[C@@H](CC[C@H]2c2cncc(F)c2)OC12CCC(OCc1ccccc1)CC2 (single isomer, unassigned) [Example 2.2]" outcome_measure=EC50 assay_result=595
compound="CC1(Oc2cc(C#N)ncn2)CC2(C1)O[C@@H]1CC[C@@H](c3cc(F)cc(F)c3)N1C2=O (stereo partly drawn) [Example 5.1]" outcome_measure=EC50 assay_result=57
compound="O=C1N2[C@@H](CC[C@H]2c2cc(F)cc(F)c2)OC12CC(Oc1ccccc1)C2 (single isomer, unassigned) [Example 16.1]" outcome_measure=EC50 assay_result=30
compound="O=C1N2[C@@H](CC[C@H]2c2ccccc2)OC12CC(Oc1cccc(F)c1)C2 (stereo partly drawn) [Example 8.10]" outcome_measure=EC50 assay_result=11
compound="O=C1N2[C@@H](CC[C@H]2c2cc(F)cc(F)c2)OC12CC(Oc1ncccc1F)C2 (stereo partly drawn) [Example 9.39]" outcome_measure=EC50 assay_result=47
compound="O=C1N2C(CC[C@H]2c2cnccn2)OC12CC(OCc1cc3ncccc3s1)C2 (stereo partly drawn) [Example 18.43]" outcome_measure=EC50 assay_result=6
compound="O=C(O[C@H]1C[C@@]2(C1)O[C@@H]1CC[C@@H](c3cc(F)cc(F)c3)N1C2=O)c1ccccn1 [Example 13]" outcome_measure=EC50 assay_result=165
compound="O=C1N2[C@@H](CC[C@H]2c2cnccn2)OC12CC(Oc1cccnc1)C2 (stereo partly drawn) [Example 19.21]" outcome_measure=EC50 assay_result=27
compound="O=C1N2[C@@H](CC[C@H]2c2cnccn2)OC12CC(Oc1cncc(Cl)c1)C2 (stereo partly drawn) [Example 19.18]" outcome_measure=EC50 assay_result=23
compound="O=C1N2[C@@H](CC[C@H]2c2cnccn2)OC12CC(OCc1ccc(-c3nnco3)cc1)C2 (stereo partly drawn) [Example 18.58]" outcome_measure=EC50 assay_result=40
compound="O=C1N2[C@@H](CC[C@H]2c2ccc(F)cc2)OC12CC(Oc1nccn3ncnc13)C2 (stereo partly drawn) [Example 9.59]" outcome_measure=EC50 assay_result=71.9
